Literature-derived Ki for Orexin receptor type 2 (Homo sapiens, UniProt O43614) follows.
Quick note: number first, unit second.

Completed entries (count: 2):
{"compound": "C[C@H]1[C@H](Nc2cnc(C(F)(F)F)cn2)CCCN1C(=O)c1ccc(F)cc1-c1ncccn1 (relative stereo)", "Ki": "944 nM"}
{"compound": "C[C@@H]1[C@H]2C[C@@H](Oc3ccc(C(F)(F)F)cn3)[C@H](C2)N1C(=O)c1cc(F)ccc1-n1nccn1 (relative stereo)", "Ki": "836 nM"}

Moving on to the next compound.
Task: Provide the reported Ki (system: Orexin receptor type 2 (Homo sapiens, UniProt O43614)) for Cc1nc(N(C)C)cc(N2CC3CN(C(=O)c4cccc(F)c4-n4nccn4)CC3C2)n1 (stereo not drawn)
Result: 164 nM
